System: RSK3(Kin.Dom.1-N-terminal)
Construct: gene RPS6KA2
condition label: concentration: 1 μM, replicates: in singlicate; n = 1;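 also: KINOMEscan kinase panel screen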
quantity: %Inh (%)
Write the value in % as a bare number.

Sample records with %Inh:
Exercise: Query (compound): COc1ccc(NC(=O)c2ccoc2)cc1-c1ccc(C(=O)NCC2CC2)cc1 [GW810437] ; field requested: %Inh
Key: 0

Exercise: Try Cc1nn2c(=O)cc(N3CCO[C@H](C)C3)nc2n1Cc1cccc(Cl)c1Cl [GSK2373693] next.
Key: 26

Exercise: Try CN(C)c1ncnc2nc[nH]c12 [SKF-31736] next.
Key: 0

Exercise: Try CNc1nccc(-c2ccc3c(N)n[nH]c3c2)n1 [GSK2206003] next.
Key: 14

---
Exercise: Query (compound): Cl.Cl.NC(CNC(=O)c1cc(Br)c(-c2ccnc3[nH]ccc23)s1)c1ccccc1 (centres unmarked) [GSK1322949] ; field requested: %Inh
Key: 14

====

Test system: TRPM6
condition label: concentration: 1 μM, replicates: in singlicate; n = 1
Mark each entry condition met if its %Inh sits below 20%, and condition not met for all others.

Exercise: Here's an entry: "CC(C)c1nc(-c2ccc(F)c(NS(=O)(=O)c3c(F)cccc3F)c2)c(-c2ccnc(Nc3ccc(N4CCOCC4)nc3)n2)s1" . Is its %Inh below 20%?
Key: condition met

Exercise: Try "COc1ccc(NC(=O)c2ccoc2)cc1-c1ccc(C(=O)NCC2CC2)cc1" next.
Key: condition met

Exercise: Try "CN(C)CCOc1ccc(-c2cc(-c3ccc(Cl)c(O)c3)c(-c3ccncc3)[nH]2)cc1.Cl.Cl" next.
Key: condition not met

Exercise: Try "Cc1ccc(NC(=O)c2cccc(N3CCCCC3)c2)cc1-c1ccc(C(=O)NCC2CC2)cc1" next.
Key: condition not met

====

System: PFTAIRE2
condition label: concentration: 1 μM, replicates: in singlicate; n = 1
# key: entry, value: %Inh
Write the value in % as a bare number.

Exercise: Query (compound): Nc1cccc(-c2ccc3c(N)n[nH]c3c2)c1 [GSK2193613] ; field requested: %Inh
Key: 13

Exercise: Try "N#CC1(c2cccc(C(=O)Nc3cccc(Oc4ccc5nc(NC(=O)C6CC6)sc5n4)c3)c2)CC1" next.
Key: 0

Exercise: Try COc1ccc(C2=C(Nc3cccc(O)c3)C(=O)NC2=O)cc1 [SB-390766] next.
Key: 4

Exercise: Try Cn1cc(-c2ccc3c(c2)CCN3C(=O)Cc2cc(F)cc(F)c2F)c2c(N)ncnc21 [GSK2634140] next.
Key: 3

// next item, %Inh requested
Exercise: Query (compound): COc1cccc(NC(=O)NCCNc2ccnc(Nc3ccc(F)cc3)n2)c1 [GSK1379879] ; field requested: %Inh
Key: 6

====

Test system: TTK
condition label: concentration: 1 μM, replicates: in singlicate; n = 1
Mark each entry Satisfied if its %Inh sits below 10%, and Not satisfied for all others.

These recorded examples may help you get a feel for the data.
Exercise: Here's an entry: "Cn1cc(-c2ccc3c(c2)CCN3C(=O)Cc2cc(F)cc(C(F)(F)F)c2)c2c(N)ncnc21" . Is its %Inh below 10%?
Key: Not satisfied

Exercise: Try "CN(C)c1ncnc2nc[nH]c12" next.
Key: Satisfied

Exercise: Try "N#Cc1cnc2cc(-c3cnc(CNCCN4CCOCC4)s3)ccc2c1Nc1ccc(Oc2ccccc2)cc1" next.
Key: Satisfied

Exercise: Try "CC(C)(C)c1ccc(C(=O)Nc2cn3cc(-n4ccnc4)ccc3n2)cc1" next.
Key: Satisfied

Exercise: Try "Cc1cccc(Nc2nc(NCCN)ncc2C(N)=O)c1" next.
Key: Not satisfied

Exercise: Try "Nc1cccc(-c2ccc3c(N)n[nH]c3c2)c1" next.
Key: Not satisfied

Exercise: Try "COc1cccc(-c2nc(-c3ccccc3)[nH]c2-c2ccncc2)c1" next.
Key: Not satisfied

---
Exercise: Here's an entry: "COc1ccc(C)c(Nc2ccnc(Nc3ccc(-c4cnc[nH]4)cc3)n2)c1.Cl" . Is its %Inh below 10%?
Key: Not satisfied

====

# key: entry, value: %Inh
Tested on: FLT4
condition label: concentration: 1 μM, replicates: in singlicate; n = 1
Write the value in % as a bare number.

Exercise: Query (compound): c1ccc(Oc2ccc(Nc3ccnc4cc(-c5ccc(CN6CCCCC6)o5)ccc34)cc2)nc1 [GW567143] ; field requested: %Inh
Key: 23

Exercise: Try "CCNC(=O)/C=C/c1n[nH]c2cc(Sc3ccccc3C(=O)NC)ccc12" next.
Key: 99.5

Exercise: Try Fc1cc(Cl)ccc1Nc1ccnc2cc(-c3ccc(CN4CCSCC4)o3)ccc12 [GW560106] next.
Key: 91.6

Exercise: Try COC(=O)Nc1nc2ccc(Oc3ccc(CC(=O)Nc4cc(C(F)(F)F)ccc4F)cc3)cc2[nH]1 [GW680903] next.
Key: 72

Exercise: Try CN(c1ccc(NC(=O)N2CCN(CCCN3CCOCC3)CC2)cc1)c1ccnc(Nc2ccc(CS(C)(=O)=O)cc2)n1.Cl [GW830899] next.
Key: 38

====

Tested on: PLK1
condition label: concentration: 1 μM, replicates: in singlicate; n = 1
# key: entry, value: %Inh
Write the value in % as a bare number.

Exercise: Query (compound): "CN(C)CCOc1ccc(-c2cc(-c3ccc(Cl)c(O)c3)c(-c3ccncc3)[nH]2)cc1.Cl.Cl" ; field requested: %Inh
Key: 3

Exercise: Try "Cc1ccc(O)cc1Nc1ccnc2ccc(C(C)(C)C)cc12" next.
Key: 63

Exercise: Try "COC(=O)Nc1nc2ccc(Oc3ccc(CC(=O)Nc4cc(C(F)(F)F)ccc4F)cc3)cc2[nH]1" next.
Key: 0

Exercise: Try "O=C(O)C(F)(F)F.O=c1[nH]ccc2nc(N[C@@H]3CCNC3)nc(Nc3ccc4c(c3)S(=O)(=O)CC4)c12" next.
Key: 31

Exercise: Try "CN(C)CCNS(=O)(=O)c1ccc(-c2ccnc3[nH]ccc23)cc1" next.
Key: 0

Exercise: Try Cl.Cl.NCC(NC(=O)c1cc(-c2cccnc2)c(-c2ccnc3[nH]ccc23)s1)c1ccccc1 (centres unmarked) next.
Key: 2

Exercise: Try "Cc1nn2c(=O)cc(N3CCO[C@H](C)C3)nc2n1Cc1cccc(Cl)c1Cl" next.
Key: 0

// next item, %Inh requested
Exercise: Query (compound): "COc1cccc(-c2nc(-c3ccccc3)[nH]c2-c2ccncc2)c1" ; field requested: %Inh
Key: 0

====

System: PIM1
condition label: concentration: 1 μM, replicates: in singlicate; n = 1
Decision: %Inh compared against 7%; not below it gives yes (1), below it gives no (0).

Exercise: Threshold query (%Inh >= 7%) on "O=C(Nc1n[nH]c2cc(-c3cccs3)ccc12)C1CC1"
Key: no (0)

Exercise: Try "CCn1cnc2c(NCc3ccccc3)ncnc21" next.
Key: yes (1)

Exercise: Try "CN(c1ccc(F)c(NC(=O)c2cccc(OC(C)(C)C#N)c2Cl)c1)c1ccc2nc(NC(=O)C3CC3)sc2n1" next.
Key: no (0)

Exercise: Try "O=C(O)C(F)(F)F.O=c1[nH]ccc2nc(N[C@@H]3CCNC3)nc(Nc3cc(Cl)cc(Cl)c3)c12" next.
Key: yes (1)

Exercise: Try "Nc1cccc(-c2ccc3c(N)n[nH]c3c2)c1" next.
Key: yes (1)

Exercise: Try "O=C(Nc1n[nH]c2nc(-c3ccccc3O)ccc12)C1CC1" next.
Key: no (0)

Exercise: Try "CNc1nccc(-c2ccc3c(N)n[nH]c3c2)n1" next.
Key: yes (1)

Exercise: Try "Cc1cc(-c2c(-c3ccc(F)cc3)ncn2CCCN2CCOCC2)nc(N)n1" next.
Key: yes (1)

Exercise: Try "CN(c1ccc2c(c1)nc(NCc1ccccc1)n2C)c1ccnc(Nc2ccc(CS(C)(=O)=O)cc2)n1.Cl" next.
Key: no (0)

Exercise: Try "COc1cc(Nc2nccc(N3CCC(NS(=O)(=O)c4ccc(NC(C)=O)cc4)CC3)n2)cc(OC)c1OC" next.
Key: no (0)

---
Exercise: Threshold query (%Inh >= 7%) on "N#Cc1cnc2cc(-c3cnc(CNCCN4CCOCC4)s3)ccc2c1Nc1ccc(Oc2ccccc2)cc1"
Key: yes (1)

Exercise: Try "CN(C)CCNS(=O)(=O)c1ccc(-c2ccnc3[nH]ccc23)cc1" next.
Key: no (0)

Exercise: Try "Cc1ccc(NC(=O)c2ccc(Cl)c(Cl)c2)cc1-c1ccc(C(=O)Nc2ccncc2)cc1" next.
Key: no (0)

Exercise: Try "CN(c1ccc(NC(=O)N2CCN(CCCN3CCOCC3)CC2)cc1)c1ccnc(Nc2ccc(CS(C)(=O)=O)cc2)n1.Cl" next.
Key: yes (1)

Exercise: Try NCCC(NC(=O)c1cc(Br)c(-c2ccnc3[nH]ccc23)s1)c1ccccc1.O=C(O)C(F)(F)F.O=C(O)C(F)(F)F (centres unmarked) next.
Key: yes (1)
